Assignment: determine reported relative viability for the given molecules.
System: VA-ES-BJ
Test: relative viability vs DMSO control (72 h) (fraction); higher = more viable cells
Settings: 0.00051 µM
Counter-ions that a name gives are not always drawn.
// return just the number, without any unit appended

QUERY: Value lookup for relative viability; key = CO[C@H]1C[C@@H]2CC[C@@H](C)[C@@](O)(O2)C(=O)C(=O)N2CCCC[C@H]2C(=O)O[C@H]([C@H](C)C[C@@H]2CC[C@@H](OP(C)(C)=O)[C@H](OC)C2)CC(=O)[C@H](C)/C=C(\C)[C@@H](O)[C@@H](OC)C(=O)[C@H](C)C[C@H](C)/C=C/C=C/C=C/1C
RESULT: 0.889

QUERY: Also COc1cccc2c1C(=O)c1c(O)c3c(c(O)c1C2=O)C[C@@](O)(C(=O)CO)C[C@@H]3O[C@H]1C[C@H](N)[C@H](O)[C@H](C)O1 [Doxorubicin Hydrochloride] , if possible.
RESULT: 1.06

QUERY: What do you have for Cc1cnc(Nc2ccc(OCCN3CCCC3)cc2)nc1Nc1cccc(S(=O)(=O)NC(C)(C)C)c1 ?
RESULT: 1.08

QUERY: Same read-out for CNC(=O)c1ccc(-c2cnc3ncc(Cc4ccc5ncccc5c4)n3n2)cc1F ?
RESULT: 1.03

QUERY: Record: C=CC(=O)Nc1cccc(Oc2nc(Nc3ccc(N4CCN(C)CC4)cc3)nc3ccsc23)c1
RESULT: 1.01

QUERY: What would you report for CC(C)(C)c1cc(NC(=O)Nc2ccc(-c3cn4c(n3)sc3cc(OCCN5CCOCC5)ccc34)cc2)no1 ?
RESULT: 1.06

QUERY: Would you kindly repeat that for CCN1CCN(Cc2ccc(Nc3ncc(F)c(-c4cc(F)c5nc(C)n(C(C)C)c5c4)n3)nc2)CC1 ?
RESULT: 1.03

QUERY: Let us now turn to O=C(Cc1ccc(-c2ccc(OCCN3CCOCC3)cc2)cn1)NCc1ccccc1
RESULT: 1.06

QUERY: Cool, now C=CC(=O)N1CCC[C@@H](n2nc(-c3ccc(Oc4ccccc4)cc3)c3c(N)ncnc32)C1
RESULT: 1.08

QUERY: Record: Cc1nc(-c2cn3c(n2)-c2ccc(-c4cnn(C(C)(C)C(N)=O)c4)cc2OCC3)n(C(C)C)n1
RESULT: 1.01

QUERY: Record: CC(=O)Nc1cccc(-n2c(=O)n(C3CC3)c(=O)c3c(Nc4ccc(I)cc4F)n(C)c(=O)c(C)c32)c1
RESULT: 1.04
